Ref: the supplement of paper PMC5998384

test system: HeLa Kyoto; assay: thermal stability score vs G1/S (z-score of summed log2 fold changes over temperatures); higher = more thermally stable than in G1/S; settings: cell cycle stage: mitosis
Measured parameter: thermal stability score
One number for each entry.

Seq string: MAGRGGAARPNGPAAGNKICQFKLVLLGESAVGKSSLVLRFVKGQFHEYQESTIGAAFLTQTVCLDDTTVKFEIWDTAGQERYHSLAPMYYRGAQAAIVVYDITNTDTFARAKNWVKELQRQASPNIVIALAGNKADLASKRAVEFQEAQAYADDNSLLFMETSAKTAMNVNEIFMAIAKKLPKNEPQNATGAPGRNRGVDLQENNPASRSQCCSN [RAB5C]
Measured parameter: thermal stability score
Meas value: -3.11

Kindly consider the entry below.
GET /values?readout=thermal stability score&system=HeLa Kyoto&item= MAAPPEPGEPEERKSLKLLGFLDVENTPCARHSILYGSLGSVVAGFGHFLFTSRIRRSCDVGVGGFILVTLGCWFHCRYNYAKQRIQERIAREEIKKKILYEGTHLDPERKHNGSSSN [COX20]
-1.53

====

tested on: HeLa Kyoto; experiment: solubility change mitosis vs G1/S (difference of NP-40 vs SDS log2 ratios) (log2 ratio difference); higher = more soluble in mitosis
Field: solubility change mitosis (log2). Provide a value for each of the sequences that follow.
Answers are plain numbers.

Below are some sequences; for each one, tell me its solubility change mitosis (log2).
1. MTSFEDADTEETVTCLQMTVYHPGQLQCGIFQSISFNREKLPSSEVVKFGRNSNICHYTFQDKQVSRVQFSLQLFKKFNSSVLSFEIKNMSKKTNLIVDSRELGYLNKMDLPYRCMVRFGEYQFLMEKEDGESLEFFETQFILSPRSLLQENNWPPHRPIPEYGTYSLCSSQSSSPTEMDENES [TIFA]
2. MASGVGAAFEELPHDGTCDECEPDEAPGAEEVCRECGFCYCRRHAEAHRQKFLSHHLAEYVHGSQAWTPPADGEGAGKEEAEVKVEQEREIESEAGEESESEEESESEEESETEEESEDESDEESEEDSEEEMEDEQESEAEEDNQEEGESEAEGETEAESEFDPEIEMEAERVAKRKCPDHGLDLSTYCQEDRQLICVLCPVIGAHQGHQLSTLDEAFEELRSKDSGGLKAAMIELVERLKFKSSDPKVTRDQMKMFIQQEFKKVQKVIADEEQKALHLVDIQEAMATAHVTEILADIQSHMDRLMTQMAQAKEQLDTSNESAEPKAEGDEEGPSGASEEEDT [TRIM44]

[-0.224, -0.202]

====

tested on: HeLa Kyoto; assay: thermal stability score vs G1/S (z-score of summed log2 fold changes over temperatures); higher = more thermally stable than in G1/S; conditions: cell cycle stage: mitosis
Measured parameter: thermal stability score
Numbers only.

Consider the sequence shown here: MDPGDDWLVESLRLYQDFYAFDLSGATRVLEWIDDKGVFVAGYESLKKNEILHLKLPLRLSVKENKGLFPERDFKVRHGGFSDRSIFDLKHVPHTRLLVTSGLPGCYLQVWQVAEDSDVIKAVSTIAVHEKEESLWPRVAVFSTLAPGVLHGARLRSLQVVDLESRKTTYTSDVSDSEELSSLQVLDADTFAFCCASGRLGLVDTRQKWAPLENRSPGPGSGGERWCAEVGSWGQGPGPSIASLGSDGRLCLLDPRDLCHPVSSVQCPVSVPSPDPELLRVTWAPGLKNCLAISGFDGTVQVYDATSWDGTRSQDGTRSQVEPLFTHRGHIFLDGNGMDPAPLVTTHTWHPCRPRTLLSATNDASLHVWDWVDLCAPR [WDR73] What is its recorded thermal stability score?
0.551

====

system: HeLa Kyoto; assay: melting temperature (median over replicates), in situ; higher = more thermally stable; conditions: cell cycle stage: G1/S
Measured parameter: melting temperature
Form entry: enter the amount, then its unit.

These solved cases illustrate the format of a correct answer.
Seq string: MSSEPPPPPQPPTHQASVGLLDTPRSRERSPSPLRGNVVPSPLPTRRTRTFSATVRASQGPVYKGVCKCFCRSKGHGFITPADGGPDIFLHISDVEGEYVPVEGDEVTYKMCSIPPKNEKLQAVEVVITHLAPGTKHETWSGHVISS [CARHSP1]
melting temperature: 54.7 °C

Seq string: MPKKFQGENTKSAAARARRAEAKAAADAKKQKELEDAYWKDDDKHVMRKEQRKEEKEKRRLDQLERKKETQRLLEEEDSKLKGGKAPRVATSSKVTRAQIEDTLRRDHQLREAPDTAEKAKSHLEVPLEENVNRRVLEEGSVEARTIEDAIAVLSVAEEAADRHPERRMRAAFTAFEEAQLPRLKQENPNMRLSQLKQLLKKEWLRSPDNPMNQRAVPFNAPK [CCDC124]
melting temperature: 57.1 °C

We next turn to a different sequence, shown below.
Enter reported melting temperature observed with HeLa Kyoto for MAETEALSKLREDFRMQNKSVFILGASGETGRVLLKEILEQGLFSKVTLIGRRKLTFDEEAYKNVNQEVVDFEKLDDYASAFQGHDVGFCCLGTTRGKAGAEGFVRVDRDYVLKSAELAKAGGCKHFNLLSSKGADKSSNFLYLQVKGEVEAKVEELKFDRYSVFRPGVLLCDRQESRPGEWLVRKFFGSLPDSWASGHSVPVVTVVRAMLNNVVRPRDKQMELLENKAIHDLGKAHGSLKP [HTATIP2]
50.8 °C

====

tested on: HeLa Kyoto; experiment: melting temperature (median over replicates), in situ; higher = more thermally stable; conditions: cell cycle stage: mitosis
For each entry below, report its melting temperature value.
Give bare numbers, in °C.

A selection of reference data follows.
Seq string: MLEEDMEVAIKMVVVGNGAVGKSSMIQRYCKGIFTKDYKKTIGVDFLERQIQVNDEDVRLMLWDTAGQEEFDAITKAYYRGAQACVLVFSTTDRESFEAVSSWREKVVAEVGDIPTVLVQNKIDLLDDSCIKNEEAEALAKRLKLRFYRTSVKEDLNVNEVFKYLAEKYLQKLKQQIAEDPELTHSSSNKIGVFNTSGGSHSGQNSGTLNGGDVINLRPNKQRTKKNRNPFSSCSIP [RAB23]
Unit text: °C
melting temperature: 53.2

Seq string: MIKLFSLKQQKKEEESAGGTKGSSKKASAAQLRIQKDINELNLPKTCDISFSDPDDLLNFKLVICPDEGFYKSGKFVFSFKVGQGYPHDPPKVKCETMVYHPNIDLEGNVCLNILREDWKPVLTINSIIYGLQYLFLEPNPEDPLNKEAAEVLQNNRRLFEQNVQRSMRGGYIGSTYFERCLK [UBE2M]
Unit text: °C
melting temperature: 51.2

Now let's try a different one.
Dear colleague, I am looking for the recorded melting temperature of the following sequence: MAEFPSKVSTRTSSPAQGAEASVSALRPDLGFVRSRLGALMLLQLVLGLLVWALIADTPYHLYPAYGWVMFVAVFLWLVTIVLFNLYLFQLHMKLYMVPWPLVLMIFNISATVLYITAFIACSAAVDLTSLRGTRPYNQRAAASFFACLVMIAYGVSAFFSYQAWRGVGSNAATSQMAGGYA [PLLP]
58.5

====

system: HeLa Kyoto; assay: thermal stability score vs G1/S (z-score of summed log2 fold changes over temperatures); higher = more thermally stable than in G1/S; settings: cell cycle stage: mitosis
Measured parameter: thermal stability score
Numbers only.

These solved cases illustrate the format of a correct answer.
Seq string: MNNKFDALKDDDSGDHDQNEENSTQKDGEKEKTERDKNQSSSKRKAVVPGPAEHPLQYNYTFWYSRRTPGRPTSSQSYEQNIKQIGTFASVEQFWRFYSHMVRPGDLTGHSDFHLFKEGIKPMWEDDANKNGGKWIIRLRKGLASRCWENLILAMLGEQFMVGEEICGAVVSVRFQEDIISIWNKTASDQATTARIRDTLRRVLNLPPNTIMEYKTHTDSIKMPGRLGPQRLLFQNLWKPRLNVP [EIF4E2]
Meas value: -0.941
//
Seq string: MEVPPPAPRSFLCRALCLFPRVFAAEAVTADSEVLEERQKRLPYVPEPYYPESGWDRLRELFGKDEQQRISKDLANICKTAATAGIIGWVYGGIPAFIHAKQQYIEQSQAEIYHNRFDAVQSAHRAATRGFIRYGWRWGWRTAVFVTIFNTVNTSLNVYRNKDALSHFVIAGAVTGSLFRINVGLRGLVAGGIIGALLGTPVGGLLMAFQKYSGETVQERKQKDRKALHELKLEEWKGRLQVTEHLPEKIESSLQEDEPENDAKKIEALLNLPRNPSVIDKQDKD [TIMMDC1]
Meas value: -2.24

Proceed to the following item.
Would you kindly share the measured thermal stability score for MPEINTNHLDKQQVQLLAEMCILIDENDNKIGAETKKNCHLNENIEKGLLHRAFSVFLFNTENKLLLQQRSDAKITFPGCFTNTCCSHPLSNPAELEESDALGVRRAAQRRLKAELGIPLEEVPPEEINYLTRIHYKAQSDGIWGEHEIDYILLVRKNVTLNPDPNEIKSYCYVSKEELKELLKKAASGEIKITPWFKIIAATFLFKWWDNLNHLNQFVDHEKIYRM [IDI1] ?
-0.519
